Entries annotated with measured Corn plant response rating
tested on: corn; assay: Test B pre-/postemergence herbicide test; type: in vivo, Zea mays; conditions: postemergence, 500 g ai/ha; visual rating, scale 0 (no effect) to 100 (complete control)
// no unit, no text: just the number

CC(=NO)c1cccc(NC(=O)c2sc(C(C)(C)C)nc2C)c1: 30
CCNC(=O)c1cccc(NC(=O)c2sc(C(C)(C)C)nc2CC)n1: 20
C=CCNC(=O)c1ccc(F)c(NC(=O)c2sc(CC)nc2C(C)(C)C)c1: 40
CCOC(=O)c1cccc(NC(=O)c2cn(C(C)(C)C)nc2CC)c1: 20
CCn1nc(C(C)(C)C)cc1C(=O)Nc1cccc(SC)c1: 20

[ask] Observed Corn plant response rating on corn for "COC(=O)c1cccc(NC(=O)c2sc(C(C)(C)C)nc2C)c1" , please.
[reply] 20

[ask] Observed Corn plant response rating on corn for "CCc1nc(C(C)(C)C)sc1C(=O)Nc1cccc(C(=O)NCC(C)C)c1" , please.
[reply] 10

---

system: wild oat; test: Test B postemergence herbicide test; assay type: in vivo, Avena fatua; conditions: postemergence, 125 g ai/ha; visual rating, scale 0 (no effect) to 100 (complete control)
outcome measure: Oat, Wild plant response rating

Worked examples, 2 molecules total:
CCON=C(C)c1cccc(NC(=O)c2cc(C(C)(C)C)nn2C)c1 [Compound 105]: 0
CCNC(=O)c1cc(NC(=O)c2cc(C(C)(C)C)nn2CC)ccc1C [Compound 68]: 10

[ask] Reported Oat, Wild plant response rating, molecule C#CCn1nc(C(C)(C)C)cc1C(=O)Nc1cccc(C(=O)NCC)c1 [Compound 50] : ____
[reply] 20

[ask] Reported Oat, Wild plant response rating, molecule CCOC(=O)c1cccc(NC(=O)c2cn(C(C)(C)C)nc2CC)c1 [Compound 186] : ____
[reply] 10

[ask] Reported Oat, Wild plant response rating, molecule CCn1nc(C(C)(C)C)cc1C(=O)Nc1cccc(C(=O)N2CCOCC2)n1 [Compound 247] : ____
[reply] 0

[ask] Reported Oat, Wild plant response rating, molecule CCNC(=O)c1cc(NC(=O)c2cc(C(C)(C)C)nn2CC)ccc1F [Compound 58] : ____
[reply] 20

[ask] Reported Oat, Wild plant response rating, molecule CCn1nc(C(C)(C)C)cc1C(=O)Nc1nc(OC)cc(OC)n1 [Compound 166] : ____
[reply] 0

[ask] Reported Oat, Wild plant response rating, molecule CCc1nn(C(C)(C)C)cc1C(=O)Nc1cc(C(=O)N(CC)CC)ccc1F [Compound 223] : ____
[reply] 0

---

system: corn; assay: Test B pre-/postemergence herbicide test; type: in vivo, Zea mays; conditions: 500 g ai/ha; visual rating, 0 = no effect, 100 = complete control; preemergence
outcome measure: Plant response rating, Corn
// no unit, no text: just the number

Worked examples, 5 compounds total:
CCn1nc(C(C)(C)C)cc1C(=S)Nc1cc(C(=S)N(C)C)ccc1F: 60
CCN(CC)C(=O)c1cccc(NC(=O)c2nn(C(C)(C)C)cc2Br)c1: 0
CCNC(=O)c1cccc(NC(=O)c2cc(C3(C)CC3)nn2CC)c1: 100
CCn1nc(C(C)(C)C)cc1C(=O)Nc1cc(OCCF)ccc1F: 0
CCN(C)C(=O)c1cncc(NC(=O)c2cc(C(C)(C)C)nn2CC)c1: 0

[ask] Reported Plant response rating, Corn, compound "CCc1nn(C(C)(C)C)cc1C(=O)Nc1cc(C(=O)N(C)C)ccn1" : ____
[reply] 100

[ask] Reported Plant response rating, Corn, compound "CCc1nc(C(C)(C)C)sc1C(=O)Nc1cccc(C(=O)N(C)C)c1" : ____
[reply] 80

[ask] Reported Plant response rating, Corn, compound "CCn1nc(C(C)(C)C)cc1C(=O)Nc1cccc(OC(F)F)c1" : ____
[reply] 0

[ask] Reported Plant response rating, Corn, compound "CCn1nc(C(C)(C)C)c(F)c1C(=O)Nc1cccc(C(=O)N(C)C)n1" : ____
[reply] 80

[ask] Reported Plant response rating, Corn, compound "CCNC(=O)c1ccc(F)c(NC(=O)c2cn(C(C)(C)C)nc2C)c1" : ____
[reply] 10

[ask] Reported Plant response rating, Corn, compound "CCn1nc(C(C)(C)C)cc1C(=O)Nc1cc(C(=O)N(C)C)c(F)cc1F" : ____
[reply] 50

Each recorded value in this set is attributed to patent US20060069132A1.
